Origin of the recorded values: PubChem BioAssay (NCI)

# Test system: HCT-15 colon
# MEASUREMENT NOTES: NCI tumour cell line growth inhibition, 48 h
READOUT KIND: TGI

- COMPOUND: "Nc1nccc(NCC2(CO)CC(OCc3ccccc3)C2)n1 (stereo not drawn)"
  ASSAYED SYSTEM: "HCT-15 colon"
  READOUT KIND: "TGI"
  VALUE OBSERVED: "> 100 µM"
- COMPOUND: "O=C(/C=C1\\Sc2ccccc2N=C1CC(=O)c1ccccc1)c1ccccc1"
  ASSAYED SYSTEM: "HCT-15 colon"
  READOUT KIND: "TGI"
  VALUE OBSERVED: "> 100 µM"
- COMPOUND: "CC1CC2(S(=O)(=O)c3ccccc3)ON1CC2S(=O)(=O)c1ccccc1 (stereo not drawn)"
  ASSAYED SYSTEM: "HCT-15 colon"
  READOUT KIND: "TGI"
  VALUE OBSERVED: "> 100 µM"

---

# Tested on: MDA-N
# MEASUREMENT NOTES: NCI tumour cell line growth inhibition, 48 h

- COMPOUND: "COc1ccc(C2=[S+]C(c3ccccc3)(c3ccccc3)c3ccccc32)cc1"
  ASSAYED SYSTEM: "MDA-N"
  TGI: "54.5 µM"
- COMPOUND: "CCOC(=O)c1sc2c(c1OC(=O)c1cc(OC)c(OC)c(OC)c1)c(=O)n(-c1ccccc1)c(=S)n2-c1ccccc1"
  ASSAYED SYSTEM: "MDA-N"
  TGI: "> 100 µM"
- COMPOUND: "CC12CC(=O)Nc3ccccc3N1C(c1ccccc1)=NO2 (stereo not given)"
  ASSAYED SYSTEM: "MDA-N"
  TGI: "> 100 µM"
- COMPOUND: "Nc1[nH]c(=O)nc2snnc12"
  ASSAYED SYSTEM: "MDA-N"
  TGI: "> 100 µM"
- COMPOUND: "CC(C)=NOC(=O)CNC(=O)C(Cc1ccccc1)NC(=O)C(C)NC(=O)OC(C)(C)C (stereo not given)"
  ASSAYED SYSTEM: "MDA-N"
  TGI: "> 100 µM"
- COMPOUND: "C=C1C[C@@H](O)[C@@H](Br)C(C)(C)[C@@]12C=CC(=O)CC2"
  ASSAYED SYSTEM: "MDA-N"
  TGI: "> 100 µM"
- COMPOUND: "C/C(=N\\NC(=O)c1ccc(Cl)cc1)c1nc2ncccc2[nH]1"
  ASSAYED SYSTEM: "MDA-N"
  TGI: "> 100 µM"
- COMPOUND: "CC(=O)C(C)C(=O)N1C(=O)N(C)C2(C)N(C)C(=O)NC12C (stereo not given)"
  ASSAYED SYSTEM: "MDA-N"
  TGI: "> 100 µM"
- COMPOUND: "C[C@@H](C[C@H]1OC(C)(C)O[C@@H]1C(C)(C)O)[C@H]1CC=C2[C@]3(C)[C@H](O)C[C@H]4C(C)(C)[C@H](O)CC[C@]4(C)[C@H]3CC[C@]21C"
  ASSAYED SYSTEM: "MDA-N"
  TGI: "16.8 µM"
- COMPOUND: "CC1CN=C(Nc2cccc(F)c2)S1 (stereo not given)"
  ASSAYED SYSTEM: "MDA-N"
  TGI: "> 100 µM"

---

# Tested on: HS 578T breast
# MEASUREMENT NOTES: NCI tumour cell line growth inhibition, 48 h
Measured TGI, listed per entry.
READOUT KIND: TGI (µM)

- MOLECULE: "CC(=O)O[C@H]1CC[C@@]2(C)C(=CC[C@@H]3[C@@H]2CC[C@]2(C)c4c(n[nH]c4C)C[C@@H]32)C1"
  READOUT KIND: "TGI"
  COMPARATOR: "="
  VALUE OBSERVED: 48
- MOLECULE: "CC(=O)NC1(NC(C)=O)C2CC(C1Cc1ccccc1)C(C)(C)C2C (centres undefined)"
  READOUT KIND: "TGI"
  COMPARATOR: ">"
  VALUE OBSERVED: 100
- MOLECULE: "CC(C)(C)[Si](C)(C)OC1[C@@H](CNC(N)=O)O[C@@H](n2cnc3c(NC(=O)Nc4ccccc4)ncnc32)[C@H]1O[Si](C)(C)C(C)(C)C (some centres undefined)"
  READOUT KIND: "TGI"
  COMPARATOR: "="
  VALUE OBSERVED: 3.02
- MOLECULE: "Cc1ccc(S(=O)C[C@](NC(=O)OCc2ccccc2)(Sc2ccccc2)C(F)F)cc1 (some centres undefined)"
  READOUT KIND: "TGI"
  COMPARATOR: "="
  VALUE OBSERVED: 94.3
- MOLECULE: "O=C(c1ccc2ccccc2c1)c1nc2cc(F)ccc2[n+]([O-])c1C(F)(F)F"
  READOUT KIND: "TGI"
  COMPARATOR: "="
  VALUE OBSERVED: 56.9
- MOLECULE: "CC1(C)CO[P@@](=S)(c2ccccn2)O[C@@H]1c1ccccc1"
  READOUT KIND: "TGI"
  COMPARATOR: ">"
  VALUE OBSERVED: 100
- MOLECULE: "CC(C)=NOC(=O)CNC(=O)C(Cc1ccccc1)NC(=O)C(C)NC(=O)OC(C)(C)C (centres undefined)"
  READOUT KIND: "TGI"
  COMPARATOR: ">"
  VALUE OBSERVED: 100
- MOLECULE: "COc1ccc(C(=O)c2sc3nc(-c4ccccc4OC)ccc3c2N)cc1OC"
  READOUT KIND: "TGI"
  COMPARATOR: "="
  VALUE OBSERVED: 74.2
- MOLECULE: "COc1ccc(C2=NC(=O)NC2c2ccc(OC)cc2)cc1 (centres undefined)"
  READOUT KIND: "TGI"
  COMPARATOR: "="
  VALUE OBSERVED: 48.5

---

# Tested on: M14 melanoma
# MEASUREMENT NOTES: NCI tumour cell line growth inhibition, 48 h; in the data active = GI50 below about 0.43 µM; inactive = the rest
Outcomes: true = active, false = inactive

- COMPOUND: "CCn1cc(/C=C2\\Oc3cc(OCC#N)ccc3C2=O)c2cc(OC)ccc21"
  CLASS NAME: "true"
- COMPOUND: "CC(=O)OC(C(=O)[O][Sn]([CH3])([CH3])[CH3])c1ccccc1 (stereo unspecified)"
  CLASS NAME: "false"
- COMPOUND: "NC(=O)c1cccnc1"
  CLASS NAME: "false"
- COMPOUND: "CCN1[C@@H](C(=O)NC23CCC(C(=O)O)(CC2)CC3)[C@H](c2cccc(Cl)c2F)[C@]2(C(=O)Nc3cc(Cl)ccc32)C12CCCCC2"
  CLASS NAME: "false"
- COMPOUND: "COc1ccc2c(c1)C(=O)/C(=C/c1cccc(OCC(=O)Nc3nc(C)c(C)s3)c1)O2"
  CLASS NAME: "true"
- COMPOUND: "O=C(Nc1cccc2[nH]c(C(F)(F)F)nc12)c1cc(Cl)ccc1Cl"
  CLASS NAME: "false"
- COMPOUND: "O=C(NN1C(=O)CSC1c1cccc(Cl)c1)C(O)c1ccccc1 (stereo unspecified)"
  CLASS NAME: "false"
- COMPOUND: "Cc1cc(CCl)c(C)cc1CCl"
  CLASS NAME: "false"
- COMPOUND: "Nc1c(C(=O)c2cccc(C#CCN3CCCCC3)c2)cnn1-c1ccc(F)cc1"
  CLASS NAME: "false"
- COMPOUND: "CCCCCCCCCc1ccc(OCCOCCOCCOCCOCCOCCOCCOCCOCCO)cc1"
  CLASS NAME: "false"
- COMPOUND: "COc1cc(OC)c2sc(-c3ccc(-n4cncc4-c4ccc(OC)c(OC)c4)cc3)nc2c1"
  CLASS NAME: "false"

---

# System: HL-60(TB) leukemia
# MEASUREMENT NOTES: NCI tumour cell line growth inhibition, 48 h
READOUT KIND: TGI

- COMPOUND: "C=CC(C)(C)n1cc(C2=C(O)C(=O)C(c3cn(C(C)(C)C=C)c4ccccc34)=C(O)C2=O)c2ccccc21"
  READOUT KIND: "TGI"
  VALUE OBSERVED: "> 31.5 µM"
- COMPOUND: "CC(C)=NOC(=O)CNC(=O)C(Cc1ccccc1)NC(=O)C(C)NC(=O)OC(C)(C)C (centres undefined)"
  READOUT KIND: "TGI"
  VALUE OBSERVED: "> 100 µM"
- COMPOUND: "CN(C)C(=S)/N=c1\\ssc(=S)n1C"
  READOUT KIND: "TGI"
  VALUE OBSERVED: "> 100 µM"
- COMPOUND: "COC(=O)c1cc(=O)nc2cc3cccccc3n12"
  READOUT KIND: "TGI"
  VALUE OBSERVED: "> 100 µM"
- COMPOUND: "COc1cc(OC)c2sc(-c3ccc(-n4cncc4-c4ccc(OC)c(OC)c4)cc3)nc2c1"
  READOUT KIND: "TGI"
  VALUE OBSERVED: "> 100 µM"
- COMPOUND: "O=[N+]([O-])c1cc([As](Br)c2ccc(O)c([N+](=O)[O-])c2)ccc1O"
  READOUT KIND: "TGI"
  VALUE OBSERVED: "4.63 µM"
- COMPOUND: "C=C1C(=O)O[C@H]2[C@H]1CC/C(COC(=O)NCc1ccc(Cn3c(=O)sn(CCCCC)c3=O)cc1)=C\\CC[C@@]1(C)O[C@@H]21"
  READOUT KIND: "TGI"
  VALUE OBSERVED: "4.12 µM"
- COMPOUND: "CC1(C)CC(=O)c2c(nc3c(ccc4ccccc43)c2-c2ccc(NC(=O)CCC(=O)Nc3ccc(-c4c5c(nc6c4ccc4ccccc46)CC(C)(C)CC5=O)cc3)cc2)C1"
  READOUT KIND: "TGI"
  VALUE OBSERVED: "> 100 µM"
- COMPOUND: "c1ccc2c(c1)NCc1cc3ccccc3nc1O2"
  READOUT KIND: "TGI"
  VALUE OBSERVED: "> 100 µM"
